Hello, the source for this data is patent US11787785B2, in case you need it.

Target: WIZ protein (HiBit-WIZ fusion protein) (Homo sapiens, UniProt O95785+Q96SW2)
Construct: expressed in transfected cells
Sequence (O95785 whole entry, the tested form may be a part): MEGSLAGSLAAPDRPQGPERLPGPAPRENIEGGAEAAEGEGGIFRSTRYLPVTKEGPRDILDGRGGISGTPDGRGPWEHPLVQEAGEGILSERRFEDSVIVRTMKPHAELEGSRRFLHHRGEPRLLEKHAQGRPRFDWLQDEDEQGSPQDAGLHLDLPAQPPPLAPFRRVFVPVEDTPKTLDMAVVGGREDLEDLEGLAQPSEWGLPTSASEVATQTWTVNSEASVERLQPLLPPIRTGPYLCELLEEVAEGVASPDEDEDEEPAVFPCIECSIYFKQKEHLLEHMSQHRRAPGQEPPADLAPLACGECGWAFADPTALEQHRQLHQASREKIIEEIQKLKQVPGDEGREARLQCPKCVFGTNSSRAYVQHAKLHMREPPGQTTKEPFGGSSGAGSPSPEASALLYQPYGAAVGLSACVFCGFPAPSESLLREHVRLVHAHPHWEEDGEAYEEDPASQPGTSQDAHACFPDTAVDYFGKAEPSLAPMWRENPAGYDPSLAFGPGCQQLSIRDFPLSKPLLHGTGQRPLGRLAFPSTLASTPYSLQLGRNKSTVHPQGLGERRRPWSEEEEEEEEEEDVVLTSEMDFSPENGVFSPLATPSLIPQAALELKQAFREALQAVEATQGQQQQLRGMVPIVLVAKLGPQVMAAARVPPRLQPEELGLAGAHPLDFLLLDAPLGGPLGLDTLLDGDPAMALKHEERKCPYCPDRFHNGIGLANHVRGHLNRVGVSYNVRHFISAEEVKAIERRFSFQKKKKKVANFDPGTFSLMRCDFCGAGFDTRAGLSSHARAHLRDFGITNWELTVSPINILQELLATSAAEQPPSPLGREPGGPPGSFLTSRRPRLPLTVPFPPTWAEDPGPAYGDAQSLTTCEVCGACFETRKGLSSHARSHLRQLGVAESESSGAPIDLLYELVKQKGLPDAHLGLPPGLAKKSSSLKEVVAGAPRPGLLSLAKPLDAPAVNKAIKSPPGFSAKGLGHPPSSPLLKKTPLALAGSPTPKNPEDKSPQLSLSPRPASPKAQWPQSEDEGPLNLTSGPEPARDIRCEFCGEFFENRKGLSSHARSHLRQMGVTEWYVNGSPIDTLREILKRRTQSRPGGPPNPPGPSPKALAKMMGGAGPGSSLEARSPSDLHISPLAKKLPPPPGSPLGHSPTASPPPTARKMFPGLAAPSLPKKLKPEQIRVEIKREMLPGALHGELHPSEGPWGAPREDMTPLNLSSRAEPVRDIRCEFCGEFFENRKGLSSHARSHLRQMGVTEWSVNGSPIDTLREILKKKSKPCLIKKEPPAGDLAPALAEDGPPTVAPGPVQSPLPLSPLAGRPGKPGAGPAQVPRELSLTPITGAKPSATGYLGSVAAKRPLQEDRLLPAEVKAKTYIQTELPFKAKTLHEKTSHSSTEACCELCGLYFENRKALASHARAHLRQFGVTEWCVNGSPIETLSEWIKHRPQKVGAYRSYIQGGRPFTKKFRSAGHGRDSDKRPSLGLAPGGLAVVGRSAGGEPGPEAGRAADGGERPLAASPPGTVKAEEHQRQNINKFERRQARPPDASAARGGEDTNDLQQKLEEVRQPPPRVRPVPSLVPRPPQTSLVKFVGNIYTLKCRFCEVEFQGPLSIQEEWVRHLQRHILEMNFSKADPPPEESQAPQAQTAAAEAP
Sequence (Q96SW2 whole entry, the tested form may be a part): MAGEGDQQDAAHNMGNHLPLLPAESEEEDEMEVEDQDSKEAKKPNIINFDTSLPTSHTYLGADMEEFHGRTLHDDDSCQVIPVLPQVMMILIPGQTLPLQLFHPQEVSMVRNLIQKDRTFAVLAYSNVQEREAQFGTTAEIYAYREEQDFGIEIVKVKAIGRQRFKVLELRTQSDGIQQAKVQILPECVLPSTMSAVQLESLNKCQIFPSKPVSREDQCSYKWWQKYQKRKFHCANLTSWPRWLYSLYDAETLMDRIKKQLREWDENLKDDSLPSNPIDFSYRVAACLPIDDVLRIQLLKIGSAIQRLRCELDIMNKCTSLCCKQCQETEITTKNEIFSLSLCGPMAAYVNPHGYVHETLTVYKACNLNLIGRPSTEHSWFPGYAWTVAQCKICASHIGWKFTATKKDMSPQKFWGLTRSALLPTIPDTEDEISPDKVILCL
Sequence (Q16531 whole entry partner, the tested form may be a part): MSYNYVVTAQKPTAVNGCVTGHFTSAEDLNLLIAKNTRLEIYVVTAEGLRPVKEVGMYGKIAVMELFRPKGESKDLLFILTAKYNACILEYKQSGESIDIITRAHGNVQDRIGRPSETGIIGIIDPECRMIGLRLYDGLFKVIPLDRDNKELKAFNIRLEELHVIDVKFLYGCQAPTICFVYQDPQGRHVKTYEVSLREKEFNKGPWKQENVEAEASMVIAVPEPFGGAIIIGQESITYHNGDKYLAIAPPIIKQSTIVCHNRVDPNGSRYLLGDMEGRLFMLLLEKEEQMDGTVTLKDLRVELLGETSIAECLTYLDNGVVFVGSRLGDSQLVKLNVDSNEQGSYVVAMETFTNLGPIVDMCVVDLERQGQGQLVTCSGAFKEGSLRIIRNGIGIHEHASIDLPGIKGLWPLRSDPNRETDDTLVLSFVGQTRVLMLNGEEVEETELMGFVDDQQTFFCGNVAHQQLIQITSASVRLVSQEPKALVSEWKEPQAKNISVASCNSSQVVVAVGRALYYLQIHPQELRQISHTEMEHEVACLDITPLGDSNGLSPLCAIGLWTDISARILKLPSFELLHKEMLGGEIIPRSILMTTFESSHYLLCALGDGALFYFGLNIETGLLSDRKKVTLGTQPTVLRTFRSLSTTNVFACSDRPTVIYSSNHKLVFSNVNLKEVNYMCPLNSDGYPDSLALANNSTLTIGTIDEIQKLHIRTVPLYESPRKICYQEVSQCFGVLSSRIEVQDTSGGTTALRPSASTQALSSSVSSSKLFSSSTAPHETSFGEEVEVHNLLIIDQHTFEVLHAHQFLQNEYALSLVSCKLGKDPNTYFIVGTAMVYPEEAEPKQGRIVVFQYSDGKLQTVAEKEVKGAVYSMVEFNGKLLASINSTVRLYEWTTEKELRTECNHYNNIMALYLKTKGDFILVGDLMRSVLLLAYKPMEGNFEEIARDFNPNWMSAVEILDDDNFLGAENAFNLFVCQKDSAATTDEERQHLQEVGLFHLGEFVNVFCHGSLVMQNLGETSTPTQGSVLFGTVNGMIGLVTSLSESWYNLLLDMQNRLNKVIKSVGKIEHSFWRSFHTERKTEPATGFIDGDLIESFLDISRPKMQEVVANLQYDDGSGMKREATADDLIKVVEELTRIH
Assay: Quantification of WIZ protein levels in HiBit tag fusion protein assay (WIZ HiBit assay in 293T cells)
Assay type: cell-based
Settings: WIZ HiBit assay in 293T cells; 10-point, 5-fold dose response, highest concentration 25 μM, about 18 hours; read-out: WIZ AC50
Criterion: DC50 strictly under 400 nM. Met: yes (1). Not met: no (0).

Before answering, review these 6 worked examples.
[[record]]
molecule = "CC(C)CN1CC[C@@H](Cc2ccn3ncc(-n4cc(C5CC5)c(=O)[nH]c4=O)c3c2)C[C@@H]1C"
cat = "no (0)"

[[record]]
molecule = "C[C@H]1C[C@H](Cc2ccn3ncc(N4CCC(=O)NC4=O)c3c2)CCN1S(=O)(=O)N1CCCC1"
cat = "yes (1)"

[[record]]
molecule = "O=C1CCN(c2cnn3ccc(CN4CCN5CCCC[C@@H]5C4)cc23)C(=O)N1"
cat = "yes (1)"

[[record]]
molecule = "CC(C)CN1CCN(Cc2ccn3ncc(-n4cc(F)c(=O)[nH]c4=O)c3c2)C[C@@H]1C"
cat = "yes (1)"

[[record]]
molecule = "CC(C)CC(C)(C)N1CCC(Cc2ccn3ncc(N4CCC(=O)NC4=O)c3c2)CC1"
cat = "yes (1)"

[[record]]
molecule = "CC(C)(CN1CCN(Cc2ccn3ncc(N4CCC(=O)NC4=O)c3c2)CC1)C(F)(F)F"
cat = "yes (1)"


Could you now look at the following molecule, please?
Enquiry: Lab note: confirm whether the reported DC50 for this molecule is below 400 nM, equality not counting. molecule: C[C@H]1CN(Cc2ccn3ncc(N4CCC(=O)NC4=O)c3c2)CCN1C[C@H]1C[C@@H](F)[C@@H](F)C1
Return: yes (1)

* * *

Target: WIZ protein (HiBit-WIZ fusion protein) (Homo sapiens, UniProt O95785+Q96SW2)
Construct: expressed in transfected cells
Test: Quantification of WIZ protein levels in HiBit tag fusion protein assay (WIZ HiBit assay in 293T cells)
Type: cell-based
Conditions: WIZ HiBit assay in 293T cells; 10-point, 5-fold dose response, highest concentration 25 μM, about 18 hours; read-out: WIZ AC50
Classification by DC50 follows these ranges: class A (below 0.2 µM), class B (0.2 µM to below 0.8 µM), class C (0.8 µM or more)

Example cases with answers are listed next.
[[record]]
compound = "O=C1CCN(c2cnn3ccc(CC4CCN(C(=O)OC5CCCCC5)CC4)cc23)C(=O)N1 [Example 96]"
tgt = "WIZ protein (HiBit-WIZ fusion protein) (Homo sapiens, UniProt O95785+Q96SW2)"
cat = "class C"

[[record]]
compound = "C[C@@H]1CC(CN2CCN(Cc3ccn4ncc(N5CCC(=O)NC5=O)c4c3)C[C@@H]2C)C[C@H](C)O1 (stereo partly drawn) [Example 199]"
tgt = "WIZ protein (HiBit-WIZ fusion protein) (Homo sapiens, UniProt O95785+Q96SW2)"
cat = "class A"


Enquiry: Would you mind sorting O=C1CCN(c2cnn3ccc(CC4CCN(C(=O)Oc5ccccc5)CC4)cc23)C(=O)N1 [Example 94] into the appropriate category?
Return: class C

Enquiry: State the band of C[C@H]1CN(Cc2ccn3ncc(N4CCC(=O)NC4=O)c3c2)CCN1C(=O)C1CC1 [Example 340]
Return: class C

Enquiry: Using the reported DC50, which band applies to Cc1cn(-c2cnn3ccc(CN4CCN(CC5CC5)[C@@H](C)C4)cc23)c(=O)[nH]c1=O [Example 362] ?
Return: class B

Enquiry: Lab note: sort CC(C)CN1CCN(Cc2ccn3ncc(-n4ccc(=O)[nH]c4=O)c3c2)C[C@@H]1C [Example 357] into the matching DC50 band.
Return: class A

Enquiry: Which class holds C[C@H]1CN(Cc2ccn3ncc(N4CCC(=O)NC4=O)c3c2)CCN1C(=O)C1CCCC1 [Example 343] ?
Return: class B

Enquiry: // return the class label for O=C1CCN(c2cnn3ccc(CC4CCN(CC5CCCO5)CC4)cc23)C(=O)N1 (stereo not drawn) [Example 15]
Return: class B
